B1: ADAMTS4 (parent)
chain: HVDPEEPWSPCSARFITDFLDNGY

# Variants of: B1
# assay.remarks: protein stability index of a GFP-peptide fusion (GPS, HEK-293T) (PSI 1-6); higher = more stable;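 also: lentivirally expressed fusions sorted by FACS into six bins by GFP to DsRed ratio, PSI derived from sequencing read proportions per bin multiplied by bin number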
# assay.setup: c terminus: a fixed tail appended
# protein stability index values compiled below

• D3H = 1.98

Assign protein stability index to the following record: "F15L"
1.96

Assign protein stability index to the following record: "D18K"
2.02

Assign protein stability index to the following record: "C11G"
2.05
